A collection of compounds and their measured Prodrug (%)
Experiment: Plasma Stability Assay (Example A3), human plasma
Assay type: in vitro ADME
Settings: 10 μM, 37° C., prodrug remaining, 120 min
Dear colleague, please send the value followed by its unit.

# count of solved cases: 4
| COMPOUND | OBSERVED_MEASUREMENT |
| --- | --- |
| COc1ccc([C@@]23CCC(OP(=O)(OC(C)C)OC(C)C)=C[C@@H]2N(C)CC3)cc1OC | 94.5% |
| COc1ccc([C@@]23CCC(OP4(=O)OCCCO4)=C[C@@H]2N(C)CC3)cc1OC | 39.2% |
| COc1ccc([C@@]23CCC(OP4(=O)OCC(C)(C)CO4)=C[C@@H]2N(C)CC3)cc1OC | 27.0% |
| COc1ccc([C@@]23CCC(OP(=O)(O)OCOC(=O)OC(C)C)=C[C@@H]2N(C)CC3)cc1OC | 88.2% |

Lookup: Report Prodrug (%) for COc1ccc([C@@]23CCC(OP(=O)(O)OCOC(=O)C(C)(C)C)=C[C@@H]2N(C)CC3)cc1OC please.
Found: 87.3%

Lookup: Report Prodrug (%) for COc1ccc([C@@]23CCC(OP(=O)(O)OCOC(=O)C(C)C)=C[C@@H]2N(C)CC3)cc1OC please.
Found: 45.4%

Lookup: Report Prodrug (%) for COc1ccc([C@@]23CCC(OP4(=O)OC(C)CC(C)O4)=C[C@@H]2N(C)CC3)cc1OC (stereo partly shown) please.
Found: 97.80%

* * *

Assay: Plasma Stability Assay (Example A3), rat plasma
Format: in vitro ADME
Details: 10 μM, 37° C., prodrug remaining, 120 min
A collection of molecules and their measured Prodrug (%)
Number only, in %; omit the unit.

# count of solved cases: 3
| MOLECULE | Prodrug (%) |
| --- | --- |
| COc1ccc([C@@]23CCC(OP4(=O)OCC(C)(C)CO4)=C[C@@H]2N(C)CC3)cc1OC | 58.8 |
| COc1ccc([C@@]23CCC(OP(=O)(O)OCOC(=O)OC(C)C)=C[C@@H]2N(C)CC3)cc1OC | 0.52 |
| COc1ccc([C@@]23CCC(OP(=O)(O)OCOC(=O)C(C)(C)C)=C[C@@H]2N(C)CC3)cc1OC | 44.5 |

# evaluate next
Lookup: Report Prodrug (%) for COc1ccc([C@@]23CCC(OP4(=O)OC(C)CC(C)O4)=C[C@@H]2N(C)CC3)cc1OC (stereo partly shown) please.
Found: 83.29

* * *

Assay: in vivo
Type: in vivo, male C57BL/6 mice
Conditions: male, C57BL/6, mouse, in vivo; 321; 321 IV 2 mg/kg, mice; 1 h; read-out: Plasma concentrations (mean)
READOUT_LABEL: concentration at 1 h
Dear colleague, please send the value followed by its unit.

Lookup: Report concentration at 1 h for COc1ccc([C@@]23CCC(OP(=O)(OC(C)C)OC(C)C)=C[C@@H]2N(C)CC3)cc1OC [Compound 321] please.
Found: 8.57 ng/mL

* * *

Assay: Plasma Stability Assay (Example A3), human plasma
Type: in vitro ADME
Details: 10 μM, 37° C., prodrug remaining, 240 min
Decide using Prodrug (%) alone. Strictly below 80%: satisfied. Equal to or above 80%: not satisfied.

Worked cases, answers included:
| COMPOUND | CLASSIFICATION |
| --- | --- |
| COc1ccc([C@@]23CCC(OP4(=O)OCCCO4)=C[C@@H]2N(C)CC3)cc1OC | satisfied |
| COc1ccc([C@@]23CCC(OP(=O)(O)OCOC(=O)OC(C)C)=C[C@@H]2N(C)CC3)cc1OC | satisfied |
| COc1ccc([C@@]23CCC(OP(=O)(O)OCOC(=O)C(C)(C)C)=C[C@@H]2N(C)CC3)cc1OC | satisfied |
| COc1ccc([C@@]23CCC(OP4(=O)OCC(C)(C)CO4)=C[C@@H]2N(C)CC3)cc1OC | satisfied |
| COc1ccc([C@@]23CCC(OP(=O)(O)OCOC(=O)C(C)C)=C[C@@H]2N(C)CC3)cc1OC | satisfied |

Lookup: Quick check: does COc1ccc([C@@]23CCC(OP(=O)(OC(C)C)OC(C)C)=C[C@@H]2N(C)CC3)cc1OC have Prodrug (%) under 80%?
Found: not satisfied

Lookup: Quick check: does COc1ccc([C@@]23CCC(OP4(=O)OC(C)CC(C)O4)=C[C@@H]2N(C)CC3)cc1OC (stereo partly shown) have Prodrug (%) under 80%?
Found: not satisfied
